Target: Ecm22 (UniProt Q05958)
Sequence: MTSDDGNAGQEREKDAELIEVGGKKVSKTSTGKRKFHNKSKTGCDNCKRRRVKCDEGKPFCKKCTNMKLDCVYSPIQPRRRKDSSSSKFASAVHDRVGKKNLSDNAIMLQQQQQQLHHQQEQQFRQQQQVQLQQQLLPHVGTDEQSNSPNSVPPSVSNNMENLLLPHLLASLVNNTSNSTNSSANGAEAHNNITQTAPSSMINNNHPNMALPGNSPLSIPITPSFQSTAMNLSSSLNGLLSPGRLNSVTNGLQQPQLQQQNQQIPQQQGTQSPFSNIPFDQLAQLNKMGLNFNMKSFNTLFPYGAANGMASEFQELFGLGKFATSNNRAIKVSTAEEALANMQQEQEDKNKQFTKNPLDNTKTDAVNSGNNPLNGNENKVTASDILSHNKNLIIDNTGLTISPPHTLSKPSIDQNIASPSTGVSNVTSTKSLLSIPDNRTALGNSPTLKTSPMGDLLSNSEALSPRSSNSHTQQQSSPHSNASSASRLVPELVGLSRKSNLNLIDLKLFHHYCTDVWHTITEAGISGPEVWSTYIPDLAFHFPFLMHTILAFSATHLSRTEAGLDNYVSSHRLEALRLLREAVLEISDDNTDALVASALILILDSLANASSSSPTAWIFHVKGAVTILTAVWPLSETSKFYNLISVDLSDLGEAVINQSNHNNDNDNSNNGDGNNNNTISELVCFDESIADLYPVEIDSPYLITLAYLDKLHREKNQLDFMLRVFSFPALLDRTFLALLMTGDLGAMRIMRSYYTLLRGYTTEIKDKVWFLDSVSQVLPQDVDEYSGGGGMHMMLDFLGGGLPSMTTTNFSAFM
Assay: PBM E-score (8-mer binding enrichment) (E-score (-0.5 to 0.5)); higher = stronger / more preferred TF binding
Conditions: protein concentration: 200 nM; construct: GST-full length
Whole data set: some 33,000 sequences, median “E-score (-0.5 to 0.5)” near -0.041, cut for the highest 2% near 0.37. For the sample, the highest values were picked, then their nearest neighbours and some sequences at random.
Please provide measured PBM E-score for the entries that follow.
Numbers only.

# batch: return PBM E-score for each of the 2 sequences below
1. GACGACGA
2. ACACGGTC

1: 0.0563; 2: -0.0081

Provide PBM E-score for all items below, preserving their order.
1. TCGCCCGA
2. ACGACAAA
3. AAACTGTT
4. TGCAGCCA
5. CTACGGTC

1: -0.102; 2: 0.384; 3: -0.124; 4: -0.171; 5: 0.0518

Give PBM E-score for each listed item.
1. AGCGACGA
2. ACGACAGT
3. CACGACGA
4. AGTCCGGC
5. GAATCGTA
6. ATTCTAAC

0.195
0.382
0.108
-0.138
0.38
-0.0713

Would you mind listing PBM E-score for each of the following sequences?
1. AAACGGTC
2. GAATCGTC

[0.293, 0.14]

Look at each sequence and report its PBM E-score.
1. GCATACGC
2. GACGTTTA
3. ATCGTTCC
4. ATTGTACC
5. CCGACAAA
6. GGTTTACA

1: 0.199; 2: 0.303; 3: 0.478; 4: 0.00485; 5: 0.0481; 6: -0.0503

Please state, for each entry, its recorded PBM E-score.
1. TAGTACGA
2. ACTGTACG
3. CATACGAG
4. CCTGTACG
5. ATACGGTG
6. GATACTTA

[0.443, 0.42, 0.481, 0.4, 0.388, -0.131]

For the 7 sequences below, give their PBM E-score values.
1. CAAAGCCA
2. AGGCCTGA
3. ACGTCTTC
4. AAGCCGTC
5. AAGTACGT
6. AGCGACCT
7. GCCGGCGA

1. -0.0435
2. -0.274
3. -0.126
4. -0.0956
5. 0.171
6. 0.0578
7. -0.117

Provide PBM E-score values for the following items, in order.
1. CTCAGCTC
2. AGCGTTCC

-0.0614
0.2
